Molecular target: SMYD3 (Homo sapiens (Human), UniProt Q9H7B4)
Sequence (Q9H7B4 whole entry): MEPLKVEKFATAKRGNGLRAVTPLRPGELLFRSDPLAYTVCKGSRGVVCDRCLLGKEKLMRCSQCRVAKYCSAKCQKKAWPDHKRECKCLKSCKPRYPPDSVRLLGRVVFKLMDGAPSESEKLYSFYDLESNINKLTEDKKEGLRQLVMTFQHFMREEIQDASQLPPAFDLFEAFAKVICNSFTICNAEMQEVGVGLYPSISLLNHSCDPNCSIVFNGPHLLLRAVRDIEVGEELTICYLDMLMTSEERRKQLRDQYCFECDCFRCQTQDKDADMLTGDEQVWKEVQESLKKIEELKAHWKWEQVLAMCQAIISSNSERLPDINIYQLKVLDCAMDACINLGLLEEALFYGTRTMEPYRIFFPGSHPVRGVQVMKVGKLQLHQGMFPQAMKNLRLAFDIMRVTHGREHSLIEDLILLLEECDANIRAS
Assay: SMYD3 cell assay (Trimethyl-MEKK2 In-Cell Western in 293T/17 cells)
Assay type: cell-based
Conditions: 293T/17 cells; read-out: SMYD3 Cell IC50 (μM)*
Please provide measured IC50 for the entries that follow.

Item COCCN(C)c1ccc(S(=O)(=O)N2CC[C@@H](NC(=O)c3cc(C4CC4)on3)C[C@H]2C)cn1 [compound 455] : provide IC50
> 10 µM

Item CC(C)CN(C)c1ccc(S(=O)(=O)N2CC[C@H](NC(=O)c3cc(C4CC4)on3)C[C@@H]2C)cn1 [compound 381] : provide IC50
> 40 µM

Item O=C(N[C@H]1C[C@H]2CC[C@@H](C1)N2S(=O)(=O)c1ccc2[nH]c(=O)oc2c1)c1cc(C2CC2)on1 [compound 405] : provide IC50
> 10 µM

Item CC(C)CN(C)c1ccc(S(=O)(=O)N2CC[C@@H](NC(=O)c3cc(C4CC4)on3)C[C@H]2C)cn1 [compound 454] : provide IC50
> 10 µM

---

Biological target: SMYD3 (Homo sapiens (Human), UniProt Q9H7B4)
Assay: SMYD3 biochemical assay (SPA, 3H-SAM methylation of MEKK2 protein substrate)
Conditions: read-out: SMYD3 Biochem IC50*
Readout Type: pIC50
Keep it numeric: pIC50 is minus log10 of the concentration in mol/L.

Item CC1CC(CS(=O)(=O)N2CC[C@H](NC(=O)c3cc(C4CC4)on3)C[C@@H]2C)CC(C)N1 (stereo partly drawn) : provide pIC50
7.79

Item O=C(N[C@H]1C[C@H]2CC[C@@H](C1)N2S(=O)(=O)N1CC2CCC(C1)N2CCCC(F)(F)F)c1cc(C2CC2)on1 : provide pIC50
7.64

Item CCC[C@H]1C[C@@H](NC(=O)c2cc(C3CC3)on2)CCN1S(=O)(=O)CCCN : provide pIC50
8.62

Item CNC1CCN(S(=O)(=O)N2[C@@H]3CC[C@H]2C[C@@H](NC(=O)c2cc(C4CC4)on2)C3)CC1 : provide pIC50
8.58

Item C[C@H]1C[C@@H](NC(=O)c2cc(C3CC3)on2)CCN1S(=O)(=O)CC1CCC(N(C)C)C1 (stereo partly drawn) : provide pIC50
8.46

Item CCNC1CCN(S(=O)(=O)N2[C@@H]3CC[C@H]2C[C@@H](NC(=O)c2cc(C4CC4)on2)C3)CC1 : provide pIC50
8.07

Item O=C(N[C@H]1C[C@H]2CC[C@@H](C1)N2S(=O)(=O)[C@@H]1CCCCNC1)c1cc(C2CC2)on1 : provide pIC50
8.00

Item C[C@H]1C[C@@H](NC(=O)c2cc(C3CC3)on2)CCN1S(=O)(=O)N1CCC(NCCO)CC1 : provide pIC50
8.61

Item C[C@H]1C[C@@H](NC(=O)c2cc(C3CC3)on2)CCN1S(=O)(=O)N1CCC(N2CCCC2)CC1 : provide pIC50
8.26

---

Target: SMYD3 (Homo sapiens (Human))
Experiment: SMYD3 biochemical assay (SPA, 3H-SAM methylation of MEKK2 protein substrate)
Conditions: read-out: SMYD3 Biochem IC50 (μM)*
Criterion: IC50 strictly less than 1 µM. Met: T. Not met: F.

Regarding C[C@@H]1C[C@@H](NC(=O)c2cc(C3CC3)on2)CCN1S(=O)(=O)CCC(F)(F)F [compound 345] , kindly confirm whether its IC50 is beneath 1 µM.
F

Regarding C[C@@H]1C[C@H](NC(=O)c2cc(C3CC3)on2)CCN1S(=O)(=O)c1ccc(N(C)CCN2CCOCC2)nc1 [compound 460] , kindly confirm whether its IC50 is beneath 1 µM.
F

Regarding NCCCC(=O)N1CCC(NC(=O)c2cc(C3CC3)on2)C2(CC2)C1 (centres unmarked) [compound 198] , kindly confirm whether its IC50 is beneath 1 µM.
T

Regarding C[C@H]1C[C@H](NC(=O)c2cc(C3CC3)on2)CCN1S(=O)(=O)Cc1ccccc1 [compound 244] , kindly confirm whether its IC50 is beneath 1 µM.
F

Regarding C[C@H](C(=O)N1CC[C@@H](NC(=O)c2cc(C3CC3)on2)C[C@@H]1C)C1CCNCC1 [compound 358] , kindly confirm whether its IC50 is beneath 1 µM.
F

Regarding N[C@H]1CC[C@H](C(=O)N2[C@@H]3CC[C@H]2C[C@@H](NC(=O)c2cc(C4CC4)on2)C3)CC1 [compound 102] , kindly confirm whether its IC50 is beneath 1 µM.
T

Regarding C[C@H]1C[C@@H](NC(=O)c2cc(C3CC3)on2)CCN1S(=O)(=O)c1ccc(Cl)cn1 [compound 466] , kindly confirm whether its IC50 is beneath 1 µM.
T

Regarding CC(C)CNc1ccc(S(=O)(=O)N2CC[C@@H](NC(=O)c3cc(C4CC4)on3)C[C@@H]2C)cn1 [compound 452] , kindly confirm whether its IC50 is beneath 1 µM.
F

Regarding CCS(=O)(=O)N1CC[C@@H](NC(=O)c2cc(C3CC3)on2)C[C@H]1C [compound 261] , kindly confirm whether its IC50 is beneath 1 µM.
F

Regarding C[C@@H]1C[C@@H](NC(=O)c2cc(C3CC3)on2)CCN1S(=O)(=O)c1ccccn1 [compound 321] , kindly confirm whether its IC50 is beneath 1 µM.
F

Regarding C[C@H]1C[C@@H](NC(=O)c2cc(C3CC3)on2)CCN1S(=O)(=O)Cc1cccnc1 [compound 319] , kindly confirm whether its IC50 is beneath 1 µM.
F

---

Target: SMYD3 (Homo sapiens (Human), UniProt Q9H7B4)
Experiment: SMYD3 cell assay (Trimethyl-MEKK2 In-Cell Western in 293T/17 cells)
Assay type: cell-based
Conditions: Table 2A; read-out: SMYD3 Cell IC50
Please provide measured pIC50 for the entries that follow.
Keep it numeric: pIC50 is minus log10 of the concentration in mol/L.

Item O=C(N[C@H]1C[C@H]2CC[C@@H](C1)N2S(=O)(=O)C[C@H]1CCCNC1)c1cc(C2CC2)on1 : provide pIC50
7.17

Item O=C(N[C@H]1C[C@H]2CC[C@@H](C1)N2S(=O)(=O)N1CC2(CNC2)C1)c1cc(C2CC2)on1 : provide pIC50
7.05

Item C[C@@H]1C[C@H](NC(=O)c2cc(C3CC3)on2)CCN1S(=O)(=O)CC1CCN(CCO)CC1 : provide pIC50
6.82

Item C[C@H]1C[C@@H](NC(=O)c2cc(C3CC3)on2)CCN1S(=O)(=O)C1CCN(C)CC1 : provide pIC50
6.98

---

Molecular target: SMYD3 (Homo sapiens (Human), UniProt Q9H7B4)
Test: SMYD3 biochemical assay (SPA, 3H-SAM methylation of MEKK2 protein substrate)
Settings: read-out: SMYD3 Biochem IC50 (μM)*
Readout Type: IC50 (µM)
Just the number please, in µM, no unit attached.

Item CC(C)CNc1ncccc1S(=O)(=O)N1C2CCCC1CC(NC(=O)c1cc(C3CC3)on1)C2 (stereo not shown) [compound 473] : provide IC50
5.97

Item C[C@H]1C[C@@H](NC(=O)c2cc(C3CC3)on2)CCN1C(=O)c1ccc(C(C)(C)N)cc1 [compound 370] : provide IC50
4.39

Item C[C@@H]1C[C@H](NC(=O)c2cc(C3CC3)on2)CCN1S(=O)(=O)Cc1cccnc1 [compound 329] : provide IC50
6.42

Item N[C@H]1CC[C@H](C(=O)N2CC[C@@H](NC(=O)c3cc(C4CC4)on3)C[C@@H]2CO)CC1 [compound 363] : provide IC50
1.99

Item C[C@@H]1CC(NC(=O)c2cc(C3CC3)on2)CCN1C(=O)C1(C)CCNCC1 (stereo partly shown) [compound 224] : provide IC50
1.42

Item CC1CC(CC(=O)N2CCC(NC(=O)c3cc(C4CC4)on3)C[C@H]2C)CCN1 (stereo partly shown) [compound 166] : provide IC50
0.506

Item NCCCS(=O)(=O)N1CCC(NC(=O)c2cc(C3CC3)on2)C[C@H]1c1ccccc1 (stereo partly shown) [compound 481] : provide IC50
0.479

Item COCCS(=O)(=O)N1CC[C@H](NC(=O)c2cc(C3CC3)on2)C[C@@H]1C [compound 233] : provide IC50
2.36

---

Target: SMYD3 (Homo sapiens (Human))
Assay: SMYD3 biochemical assay (SPA, 3H-SAM methylation of MEKK2 protein substrate)
Conditions: read-out: SMYD3 Biochem IC50 (μM)*
Classification field. Basis: IC50. Definitions: low: < 2 µM; medium: ≥ 2 µM and < 5 µM; high: ≥ 5 µM

Sort into band: O=C(N[C@@H]1C[C@H]2CC[C@@H](C1)N2S(=O)(=O)c1ccccc1)c1cc(C2CC2)on1
low

Sort into band: C[C@@H]1CC(NC(=O)c2cc(C3CC3)on2)CCN1C(=O)[C@H]1CC[C@H](O)CC1 (stereo partly shown)
high

Sort into band: CC(C)CNc1ccc(S(=O)(=O)N2CC[C@@H](NC(=O)c3cc(C4CC4)on3)C[C@H]2C)cn1
high

Sort into band: C[C@H]1C[C@H](NC(=O)c2cc(C3CC3)on2)CCN1S(=O)(=O)N1CCCC1
high

Sort into band: CC[C@@H]1CN(C(=O)CCCN)CC[C@@H]1NC(=O)c1cc(C2CC2)on1
low

Sort into band: C[C@H]1CC(NC(=O)c2cc(C3CC3)on2)CCN1C(=O)[C@@H](N)Cc1ccc(O)cc1 (stereo partly shown)
low

Sort into band: N[C@H]1CC[C@H](C(=O)N2CCC(NC(=O)c3cc(C4CC4)on3)C(c3ccccc3)C2)CC1 (stereo partly shown)
high

Sort into band: CCOC(=O)[C@@H]1CC(NC(=O)c2cc(C3CC3)on2)CCN1C(=O)CCCN (stereo partly shown)
high

Sort into band: O=C(N[C@@H]1CCN(C(=O)CC2CCNCC2)[C@H](Cc2ccccc2)C1)c1cc(C2CC2)on1
medium

Sort into band: CC(C)CS(=O)(=O)N1CC[C@@H](NC(=O)c2cc(C3CC3)on2)C[C@@H]1C
high

Sort into band: CCOC(=O)C1CN(C(=O)[C@H]2CC[C@H](N)CC2)CCC1NC(=O)c1cc(C2CC2)on1 (stereo partly shown)
medium

Sort into band: C[C@@H]1CC(NC(=O)c2cc(C3CC3)on2)CCN1C(=O)[C@@H](CN)Cc1ccc(O)cc1 (stereo partly shown)
low

Sort into band: C[C@H]1C[C@H](NC(=O)c2cc(C3CC3)on2)CCN1S(=O)(=O)c1cccc(C#N)c1
low

Sort into band: N[C@H]1CC[C@H](C(=O)N2CC[C@H](NC(=O)c3cc(C4CC4)on3)C[C@H]2Cc2ccccc2)CC1
medium

Sort into band: C[C@@H]1C[C@@H](NC(=O)c2cc(C3CC3)on2)CCN1S(=O)(=O)c1ccc(Cl)nc1
high

Origin of values: patent US10577363B2
